Protocol details: Drug level in NMRI mouse spleen/pancreas assessed as standard uptake value at 3.7 MBq/mL, iv after 60 mins by gamma counting
Type: ADME, organism-based
Condition parameters: in vivo, 1 h
Assay endpoint: SUV

structure_smiles=CNc1ccc2nc(-c3ccc([18F])cc3)sc2c1 quantitative_readout=0.3
structure_smiles=[11CH3]Nc1ccc(-c2nc3ccc(O)cc3s2)cc1 quantitative_readout=0.2
structure_smiles=CN(C)c1ccc2nc(-c3ccc([18F])cc3)sc2c1 quantitative_readout=0.4

[a] Cc1ccc2nc(-c3ccc([18F])cc3)sc2c1
[b] Nc1ccc2nc(-c3ccc([18F])cc3)sc2c1
stdin: // select label with min value of measured SUV from [ a , b ] Please identify the chosen entry by its label.
stdout: a
(a: 0.2, b: 0.3)

---

System: Kidney
Protocol details: Drug level in NMRI mouse kidney assessed as standard uptake value at 3.7 MBq/mL, iv after 2 mins by gamma counting
Format: ADME, organism-based
Condition parameters: in vivo
Assay endpoint: SUV

Example entries and their recorded answers appear below.
structure_smiles=CN(C)c1ccc2nc(-c3ccc([18F])cc3)sc2c1 assay_endpoint=SUV quantitative_readout=4.3
structure_smiles=Cc1ccc2nc(-c3ccc([18F])cc3)sc2c1 assay_endpoint=SUV quantitative_readout=3.4

[A] CNc1ccc2nc(-c3ccc([18F])cc3)sc2c1
[B] [11CH3]Nc1ccc(-c2nc3ccc(O)cc3s2)cc1
stdin: // select label with min value of measured SUV from [ A , B ] Please identify the chosen entry by its label.
stdout: A

---

System: Heart
Protocol details: Biodistribution in NMRI mouse heart at 3.7 MBq/mL, iv after 60 mins by gamma counting
Assay type: ADME, organism-based
Condition parameters: in vivo, 1 h
Assay endpoint: Drug uptake (%)

structure_smiles=Cc1ccc2nc(-c3ccc([18F])cc3)sc2c1 tgt=Heart quantitative_readout=0.1
structure_smiles=[11CH3]Nc1ccc(-c2nc3ccc(O)cc3s2)cc1 tgt=Heart quantitative_readout=0.3

[1] CN(C)c1ccc2nc(-c3ccc([18F])cc3)sc2c1
[2] Nc1ccc2nc(-c3ccc([18F])cc3)sc2c1
stdin: // select label with min value of measured Drug uptake from [ 1 , 2 ] Please identify the chosen entry by its label.
stdout: 2

---

System: Liver
Protocol details: Drug level in NMRI mouse liver assessed as standard uptake value at 3.7 MBq/mL, iv after 60 mins by gamma counting
Type: ADME, organism-based
Condition parameters: in vivo, 1 h
Assay endpoint: SUV

[P] CNc1ccc2nc(-c3ccc([18F])cc3)sc2c1
[Q] Nc1ccc2nc(-c3ccc([18F])cc3)sc2c1
[R] Cc1ccc2nc(-c3ccc([18F])cc3)sc2c1
stdin: Consider the compounds listed above. Rank them by SUV in ascending numerical order. // rank by listing labels in the order requested
stdout: Q, P, R

---

Protocol details: Biodistribution in NMRI mouse spleen/pancreas at 3.7 MBq/mL, iv after 2 mins by gamma counting
Format: ADME, organism-based
Condition parameters: in vivo
Assay endpoint: Drug uptake (%)

Example entries and their recorded answers appear below.
structure_smiles=Nc1ccc2nc(-c3ccc([18F])cc3)sc2c1 quantitative_readout=1.4
structure_smiles=CNc1ccc2nc(-c3ccc([18F])cc3)sc2c1 quantitative_readout=1.4
structure_smiles=Cc1ccc2nc(-c3ccc([18F])cc3)sc2c1 quantitative_readout=1.3

[A] [11CH3]Nc1ccc(-c2nc3ccc(O)cc3s2)cc1
[B] CN(C)c1ccc2nc(-c3ccc([18F])cc3)sc2c1
stdin: // select label with min value of measured Drug uptake from [ A , B ] Please identify the chosen entry by its label.
stdout: A
